Below is a list of entries, each paired with its recorded CC50 value.
tested on: HeLa-ACE2 cells; details: read-out: HeLa-ACE2 Uninfected Tox CC50; Table 4; aggregated data, Geomean, n = 3
ASSAY ENDPOINT: CC50

{"MOLECULE": "CC(=O)OC[C@H]1O[C@@H]([S-])[C@H](OC(C)=O)[C@@H](OC(C)=O)[C@@H]1OC(C)=O.CCP(CC)CC.[Au+] [auranofin]", "OBSERVED MEASUREMENT": "0.634 µM"}
{"MOLECULE": "CSc1ncnc2c1ncn2[C@@H]1O[C@H](CO)[C@@H](O)[C@H]1O [6-Methyl mercaptopurineriboside]", "OBSERVED MEASUREMENT": "15.4 µM"}
{"MOLECULE": "Nc1nc2[nH]cnc2c(=S)[nH]1 [Tioguanine]", "OBSERVED MEASUREMENT": "2.82 µM"}
{"MOLECULE": "CCOc1ccc(Cc2nc3cc(N(C)S(=O)(=O)c4cccs4)ccc3n2CC2CCCCC2)nc1 [AZ-11713908]", "OBSERVED MEASUREMENT": "33 µM"}
{"MOLECULE": "CN(C)C(C(=O)Nc1ccc2c(=O)[nH]ccc2c1)c1ccsc1 (stereo not drawn) [Verosudil]", "OBSERVED MEASUREMENT": "> 39.8 µM"}
{"MOLECULE": "COC1(c2cc(F)cc(OCc3ccc4c(ccc(=O)n4C)c3)c2)CCOCC1 [ZD 2138]", "OBSERVED MEASUREMENT": "28.7 µM"}
{"MOLECULE": "O=c1[nH]c2ccc(C(F)(F)F)cc2c(-c2cc(Cl)ccc2O)c1CCO [BMS-223131]", "OBSERVED MEASUREMENT": "21.4 µM"}
{"MOLECULE": "Cc1nc2c(s1)C(=O)C=C(NCCN(C)C)C2=O [BN-82685]", "OBSERVED MEASUREMENT": "4.66 µM"}
{"MOLECULE": "Nc1nccc2c1ncn2C1C=C(CO)C(O)C1O (stereo not drawn) [DEAZANEPLANOCINA]", "OBSERVED MEASUREMENT": "7.95 µM"}

----------
system: SARS-CoV-2; settings: Table 4

{"MOLECULE": "N=C(N)Nc1ccc(C(=O)Oc2ccc(S(N)(=O)=O)cc2)cc1", "Calu3 SI CC50/CoV-2 EC50": ">16"}
{"MOLECULE": "COC1(c2cc(F)cc(OCc3ccc4c(ccc(=O)n4C)c3)c2)CCOCC1", "Calu3 SI CC50/CoV-2 EC50": 5.18}
{"MOLECULE": "CCCCCCC1C(=O)O[C@H](C)[C@H](NC(=O)c2cccc(NC=O)c2O)C(=O)O[C@@H](C)[C@@H]1OC(=O)CC(C)C (stereo partly drawn) [Antimycin A]", "Calu3 SI CC50/CoV-2 EC50": 22.00}
{"MOLECULE": "NC(N)=Nc1ncc(Cl)c2ccc(-c3cccc(C(=O)O)c3)cc12", "Calu3 SI CC50/CoV-2 EC50": ">15"}
{"MOLECULE": "CC[C@@H]1/C=C/C=C/C[C@H](C)[C@@H](O)[C@](C)(O)C(=O)[C@H](C)[C@@H](O)[C@H](C)C(=O)[C@H](C)[C@@H](O)[C@H](C)/C=C/C(=O)O[C@H]2[C@@H](C)[C@@H](CC1)O[C@]1(O[C@H](C[C@H](C)O)[C@H](C)CC1=O)[C@@H]2C", "Calu3 SI CC50/CoV-2 EC50": 4539.49}
{"MOLECULE": "CC[C@H]1CN2CCc3cc(OC)c(OC)cc3[C@@H]2C[C@@H]1C[C@H]1NCCc2cc(O)c(OC)cc21", "Calu3 SI CC50/CoV-2 EC50": 34.84}
{"MOLECULE": "O=C(Nc1ccc(Cl)c(S(=O)(=O)N2CCNCC2)c1O)Nc1cccc(F)c1Cl [Elubrixitosylate]", "Calu3 SI CC50/CoV-2 EC50": ">4.28"}
{"MOLECULE": "COC1CC(OC2CCC3(C=O)[C@H]4CCC5(C)C(C6=CC(=O)OC6)CCC5(O)[C@@H]4CCC3(O)C2)OC(C)C1O (stereo partly drawn)", "Calu3 SI CC50/CoV-2 EC50": 43.53}
{"MOLECULE": "CO[C@H]1[C@@H](O)C[C@H](O[C@H]2[C@@H](O)C[C@H](O[C@H]3[C@@H](O)C[C@H](O[C@H]4CC[C@@]5(C)[C@H](CC[C@@H]6[C@@H]5C[C@@H](O)[C@]5(C)[C@@H](C7=CC(=O)OC7)CC[C@]65O)C4)O[C@@H]3C)O[C@@H]2C)O[C@@H]1C", "Calu3 SI CC50/CoV-2 EC50": 6.22}
{"MOLECULE": "CNC(=O)n1ccc2cc(Oc3ccnc(NC(=O)c4ccc(C5CCN(CCO)CC5)cc4)c3)c(OCCOC)cc21", "Calu3 SI CC50/CoV-2 EC50": 19.88}
{"MOLECULE": "CC/C(=C(/c1ccc(/C=C/C(=O)O)cc1)c1ccc2[nH]ncc2c1)c1ccc(F)cc1Cl", "Calu3 SI CC50/CoV-2 EC50": 21.60}
{"MOLECULE": "CC(C)(C)c1ccc(CSc2cnn(C(C)(C)C)c(=O)c2Cl)cc1", "Calu3 SI CC50/CoV-2 EC50": 43.89}
{"MOLECULE": "Cc1nc2c(s1)C(=O)C=C(NCCN(C)C)C2=O", "Calu3 SI CC50/CoV-2 EC50": 5.69}
{"MOLECULE": "CC(=O)N1C[C@H](O)C[C@H]1C(=O)N[C@@H](CCCNC(=N)N)C(=O)c1nc2ccccc2s1", "Calu3 SI CC50/CoV-2 EC50": ">24"}
{"MOLECULE": "CC(=O)O[C@H]1C[C@H](O[C@H]2[C@@H](O)C[C@H](O[C@H]3[C@@H](O)C[C@H](O[C@H]4CC[C@@]5(C)[C@H](CC[C@@H]6[C@@H]5C[C@@H](O)[C@]5(C)[C@@H](C7=CC(=O)OC7)CC[C@]65O)C4)O[C@@H]3C)O[C@@H]2C)O[C@H](C)[C@H]1O[C@@H]1O[C@H](CO)[C@@H](O)[C@H](O)[C@H]1O [LANATOSIDE]", "Calu3 SI CC50/CoV-2 EC50": 31.97}
{"MOLECULE": "C=C(C)[C@]12C[C@@H](C)[C@@]34O[C@](Cc5ccccc5)(O[C@@H]1[C@@H]3C=C(COC(=O)Cc1ccc(O)c(OC)c1)C[C@]1(O)C(=O)C(C)=C[C@@H]41)O2", "Calu3 SI CC50/CoV-2 EC50": 19.13}
{"MOLECULE": "CC[C@@H]1/C=C/C=C/C[C@H](C)[C@@H](O)[C@](C)(O)C(=O)[C@H](C)[C@@H](O)[C@H](C)C(=O)[C@H](C)[C@@H](O)[C@H](C)/C=C/C(=O)O[C@H]2[C@@H](C)[C@@H](CC1)O[C@@]1(CC[C@@H](C)[C@@H](C[C@H](C)O)O1)[C@@H]2C", "Calu3 SI CC50/CoV-2 EC50": ">4000"}
{"MOLECULE": "COc1ccc2c(c1)[C@]1(CC1c1ccc3c(/C=C/c4ccc(CN5C[C@@H](C)O[C@@H](C)C5)cc4)n[nH]c3c1)C(=O)N2 (stereo partly drawn)", "Calu3 SI CC50/CoV-2 EC50": ">5.88"}

----------
system: SARS-CoV-2; assay: microbe, parasite or virus in culture; details: Severe acute respiratory syndrome coronavirus 2, Calu-3, read-out: Calu-3 SARS-CoV-2 EC50
ASSAY ENDPOINT: EC50

{"RECORD SMILES": "CCC(CC)COC(=O)[C@H](C)N[P@](=O)(OC[C@H]1O[C@@](C#N)(c2ccc3c(N)ncnn23)[C@H](O)[C@@H]1O)Oc1ccccc1", "TARGET SYSTEM": "SARS-CoV-2", "ASSAY ENDPOINT": "EC50", "OBSERVED MEASUREMENT": "444 nM"}

----------
system: SARS-CoV-2; test: microbe, parasite or virus in culture; conditions: Severe acute respiratory syndrome coronavirus 2, HeLa-ACE2, read-out: HeLa-ACE2 CoV-2 EC50 [μM]
ASSAY ENDPOINT: EC50 (µM)

{"COMPOUND": "COc1ccc2c(c1)[C@]1(CC1c1ccc3c(/C=C/c4ccc(CN5C[C@@H](C)O[C@@H](C)C5)cc4)n[nH]c3c1)C(=O)N2 (stereo partly shown)", "SIGN QUALIFIER": ">", "OBSERVED MEASUREMENT": 7}
{"COMPOUND": "C=C(C)[C@]12C[C@@H](C)[C@@]34O[C@](Cc5ccccc5)(O[C@@H]1[C@@H]3C=C(COC(=O)Cc1ccc(O)c(OC)c1)C[C@]1(O)C(=O)C(C)=C[C@@H]41)O2", "SIGN QUALIFIER": "=", "OBSERVED MEASUREMENT": 1.3}
{"COMPOUND": "COc1ccc2c(c1)c(CC(=O)NO)c(C)n2C(=O)c1ccc(Cl)cc1", "SIGN QUALIFIER": "=", "OBSERVED MEASUREMENT": 9.14}
{"COMPOUND": "C[C@H]1O[C@@H](O[C@H]2[C@@H](O)C[C@@H](O[C@@H]3[C@@H](O)C[C@H](O[C@H]4CC[C@@]5(C)[C@H](CC[C@@H]6[C@@H]5C[C@@H](O)[C@]5(C)[C@@H](C7=CC(=O)OC7)CC[C@]65O)C4)O[C@@H]3C)O[C@@H]2C)C[C@H](O)[C@@H]1O (stereo in doubt)", "SIGN QUALIFIER": "=", "OBSERVED MEASUREMENT": 0.166}
{"COMPOUND": "CC[C@H]1CN2CCc3cc(OC)c(OC)cc3[C@@H]2C[C@@H]1C[C@H]1NCCc2cc(O)c(OC)cc21", "SIGN QUALIFIER": "=", "OBSERVED MEASUREMENT": 0.017}
{"COMPOUND": "CO[C@H]1[C@@H](O)C[C@H](O[C@H]2[C@@H](O)C[C@H](O[C@H]3[C@@H](O)C[C@H](O[C@H]4CC[C@@]5(C)[C@H](CC[C@@H]6[C@@H]5C[C@@H](O)[C@]5(C)[C@@H](C7=CC(=O)OC7)CC[C@]65O)C4)O[C@@H]3C)O[C@@H]2C)O[C@@H]1C", "SIGN QUALIFIER": "=", "OBSERVED MEASUREMENT": 0.284}
{"COMPOUND": "C[C@@H]1C[C@@H]([C@H](O)CC2CC(=O)NC(=O)C2)C(=O)[C@@H](C)C1 [Cycloheximide]", "SIGN QUALIFIER": "=", "OBSERVED MEASUREMENT": 0.634}
